Provide the reported Population Fragmented Nuclei (%) of each item.
tested on: Fibroblast; assay: Multiplex assay against human fibroblast; type: toxicity, cell-based; settings: 48 h, 1 µM, compound concentration 1 uM, replicate 1
Report only the number, with the unit % understood.

# get_value(readout='Population Fragmented Nuclei (%)', item= Cc1nc2ccc(Oc3ccc(F)cc3)cc2c(=O)n1C[C@H]1CCCN(C(C)C)C1.Cl )
25

# repeat for O=C(NCCO)c1cccc(-c2cc(Nc3ccc(OC(F)(F)F)cc3)ncn2)c1
21

# repeat for CCOc1c2c(c(OCC)c3ncccc13)CN(c1ccc(CS(=O)(=O)NC(=O)Cc3ccccc3OC)cc1C)C2=O
18

# repeat for c1cc(OCCCN2CCCCC2)ccc1CN1CCCCC1
18

# repeat for CN1CCN2c3ncccc3Cc3ccccc3C2C1 (stereo not given)
15

Values from ChEMBL document CHEMBL5058577
